Tested on: A. baumannii JMI7
test_name: In vitro antimicrobial activity, MIC by broth microdilution (CLSI)
Type: cell-based
condition: Acinetobacter baumannii, JMI7; PER-1, OXA-23, 51, ESBL and OXA-type carbapenemase producing strain; 5×10^5 cfu/mL; cation-adjusted Iso-Sensitest broth containing human Apo-transferrin; read-out: Minimum Inhibitory Concentration (MIC) A. baumannii JMI:7
measure_name: MIC (µg/mL)

molecule: C[C@@H]1S[C@@H]2[C@H](NC(=O)/C(=N\OC(C)(C)C(=O)[O-])c3csc(N)n3)C(=O)N2C(C(=O)O)=C1C[N+]1(CCNN2C(=O)c3cc(O)c(O)cc3C2=O)CCCC1
readout_unit: µg/mL
MIC: 0.5
--
molecule: CCn1cc(C(=O)N[C@H]2C[C@H]3CC[C@@H](C2)[N@+]3(C)CC2=C(C(=O)O)N3C(=O)[C@@H](NC(=O)/C(=N\OC(C)(C)C(=O)[O-])c4csc(N)n4)[C@H]3S[C@H]2C)c(=O)c2c(Cl)c(O)c(O)cc21
readout_unit: µg/mL
MIC: 0.5

[P] C[C@@H]1S[C@@H]2[C@H](NC(=O)/C(=N\OC(C)(C)C(=O)[O-])c3csc(N)n3)C(=O)N2C(C(=O)[O-])=C1C[N+]12CCC[C@H]1CN(C(=O)C(=O)c1ccc(O)c(O)c1Cl)CC2.[Na+] (some centres unmarked)
[Q] C[C@@H]1S[C@@H]2[C@H](NC(=O)/C(=N\OC(C)(C)C(=O)[O-])c3csc(N)n3)C(=O)N2C(C(=O)[O-])=C1C[N+]12CCC[C@H]1CN(C(=O)c1cc(O)c(O)c(F)c1)CC2.[Na+] (some centres unmarked)
[R] C[C@@H]1S[C@@H]2[C@H](NC(=O)/C(=N\OC(C)(C)C(=O)O)c3csc(N)n3)C(=O)N2C(C(=O)[O-])=C1C[N+]12CCC(Cn3ncc4cc(O)c(O)cc4c3=O)(CC1)C2
Request: Your job: order these 3 records by MIC, ascending. Would you mind listing the labels in the order asked for?
Result: R, P, Q

###

Test system: A. baumannii JMI7
test_name: In vitro antimicrobial activity, MIC by broth microdilution (CLSI)
Assay type: cell-based
condition: Acinetobacter baumannii, JMI7; PER-1, OXA-23, 51, ESBL and OXA-type carbapenemase producing strain; 5×10^5 cfu/mL; cation-adjusted Iso-Sensitest broth containing human Apo-transferrin; read-out: Minimum Inhibitory Concentration (MIC) A. baumannii JMI:7
measure_name: MIC (µg/mL)

molecule: C[C@@H]1S[C@@H]2[C@H](NC(=O)/C(=N\OC(C)(C)C(=O)[O-])c3csc(N)n3)C(=O)N2C(C(=O)[O-])=C1C[N+]1(C)[C@@H]2CC[C@H]1C[C@@H](NC(=O)c1cc(O)c(O)c(F)c1)C2.[Na+] (some centres unmarked) [Compound I-71]
MIC (µg/mL): 0.5

molecule: C[C@@H]1S[C@@H]2[C@H](NC(=O)/C(=N\OC(C)(C)C(=O)[O-])c3csc(N)n3)C(=O)N2C(C(=O)[O-])=C1C[N+]12CCCC(CNC(=O)c3ccc(O)c(O)c3Cl)(CCC1)C2.[Na+] [Compound I-118]
MIC (µg/mL): 0.25

molecule: C[C@@H]1S[C@@H]2[C@H](NC(=O)/C(=N\OC(C)(C)C(=O)[O-])c3csc(N)n3)C(=O)N2C(C(=O)[O-])=C1C[N+]1(CCNC(=O)C(=O)c2cc(O)c(O)c(Cl)c2)CCCC1.[Na+] [Compound I-8]
MIC (µg/mL): 1

molecule: C[C@@H]1S[C@@H]2[C@H](NC(=O)/C(=N\OC(C)(C)C(=O)[O-])c3csc(N)n3)C(=O)N2C(C(=O)O)=C1C[N+]12CCC(CNC(=O)/C(=N\O)c3ccc(O)c(O)c3Cl)(CC1)C2 [Compound I-102]
MIC (µg/mL): 0.5

molecule: C[C@@H]1S[C@@H]2[C@H](NC(=O)/C(=N\OC(C)(C)C(=O)[O-])c3csc(N)n3)C(=O)N2C(C(=O)[O-])=C1C[N+]12CCC(CNC(=O)C(=O)c3cc(O)c(O)c(F)c3)(CC1)CC2.[Na+] [Compound I-81]
MIC (µg/mL): 2

[a] C[C@@H]1S[C@@H]2[C@H](NC(=O)/C(=N\OC(C)(C)C(=O)[O-])c3csc(N)n3)C(=O)N2C(C(=O)O)=C1C[N+]12CCC(CC1)N(C(=O)/C(=N\O)c1ccc(O)c(O)c1Cl)CC2 [Compound I-137]
[b] CO/N=C(\C(=O)NCC12CC[N+](CC3=C(C(=O)O)N4C(=O)[C@@H](NC(=O)/C(=N\OC(C)(C)C(=O)[O-])c5csc(N)n5)[C@H]4S[C@H]3C)(CC1)C2)c1ccc(O)c(O)c1Cl [Compound I-104]
[c] C[C@@H]1S[C@@H]2[C@H](NC(=O)/C(=N\OC(C)(C)C(=O)[O-])c3csc(N)n3)C(=O)N2C(C(=O)[O-])=C1C[N+]12CCC(CN3C(=O)c4cc(O)c(O)cc4C3=O)(CC1)C2.[Na+] [Compound I-116]
Request: List the 3 entries from lowest MIC to highest MIC value. Please list the labels in the order you were asked to rank them.
Result: c, a, b

###

Tested on: A. baumannii JMI7
test_name: In vitro antimicrobial activity, MIC by broth microdilution (CLSI)
Assay type: cell-based
condition: Acinetobacter baumannii, JMI7; PER-1, OXA-23, 51, ESBL and OXA-type carbapenemase producing strain; 5×10^5 cfu/mL; cation-adjusted Iso-Sensitest broth containing human Apo-transferrin; read-out: Minimum Inhibitory Concentration (MIC) A. baumannii JMI:7
measure_name: MIC (µg/mL)

[a] C[C@@H]1S[C@@H]2[C@H](NC(=O)/C(=N\OC(C)(C)C(=O)[O-])c3csc(N)n3)C(=O)N2C(C(=O)O)=C1C[N+]1(CCN2C(=O)c3ccc(O)c(O)c3C2=O)CCCCC1
[b] C[C@@H]1S[C@@H]2[C@H](NC(=O)/C(=N\O[C@@H](CC(=O)[O-])C(=O)[O-])c3csc(N)n3)C(=O)N2C(C(=O)[O-])=C1C[N+]12CCC(CC1)N(C(=O)C(=O)c1cc(O)c(O)c(Cl)c1)CC2.[Na+].[Na+]
Request: Lower value for measured MIC? Options: a , b # respond with the chosen item's label
Result: a
(a: 0.5 µg/mL, b: 4 µg/mL)

###

System: A. baumannii JMI7
test_name: In vitro antimicrobial activity, MIC by broth microdilution (CLSI)
Format: cell-based
condition: Acinetobacter baumannii, JMI7; PER-1, OXA-23, 51, ESBL and OXA-type carbapenemase producing strain; 5×10^5 cfu/mL; cation-adjusted Iso-Sensitest broth containing human Apo-transferrin; read-out: Minimum Inhibitory Concentration (MIC) A. baumannii JMI:7
measure_name: MIC (µg/mL)

Sample answers from the record:
chemical_string: C[C@@H]1S[C@@H]2[C@H](NC(=O)/C(=N\OC(C)(C)C(=O)[O-])c3csc(N)n3)C(=O)N2C(C(=O)O)=C1C[N+]1(CCNC(=O)c2ccc(O)c(O)c2Cl)CCCCC1
target_system: A. baumannii JMI7
readout_unit: µg/mL
MIC: 1
//
chemical_string: C[C@@H]1S[C@@H]2[C@H](NC(=O)/C(=N\OC(C)(C)C(=O)[O-])c3csc(N)n3)C(=O)N2C(C(=O)[O-])=C1C[N+]12CCC(CNC(=O)c3cc(O)c(O)c(F)c3)(CC1)C2.[Na+]
target_system: A. baumannii JMI7
readout_unit: µg/mL
MIC: 0.5

[I] C[C@@H]1S[C@@H]2[C@H](NC(=O)/C(=N\OC(C)(C)C(=O)[O-])c3csc(N)n3)C(=O)N2C(C(=O)[O-])=C1C[N+]1(CCNC(=O)C(=O)c2ccc(O)c(O)c2)CCCC1.[Na+]
[II] C[C@@H]1S[C@@H]2[C@H](NC(=O)/C(=N\OC(C)(C)C(=O)O)c3csc(N)n3)C(=O)N2C(C(=O)[O-])=C1C[N+]12CCC(Cn3cnc4cc(O)c(O)c(Cl)c4c3=O)(CC1)C2
Request: I need your help: which of the pair I , II has higher MIC? Could you answer with the label of the item you picked?
Result: I

###

System: A. baumannii JMI7
test_name: In vitro antimicrobial activity, MIC by broth microdilution (CLSI)
Format: cell-based
condition: Acinetobacter baumannii, JMI7; PER-1, OXA-23, 51, ESBL and OXA-type carbapenemase producing strain; 5×10^5 cfu/mL; cation-adjusted Iso-Sensitest broth containing human Apo-transferrin; read-out: Minimum Inhibitory Concentration (MIC) A. baumannii JMI:7
measure_name: MIC (µg/mL)

chemical_string: C[C@@H]1S[C@@H]2[C@H](NC(=O)/C(=N\OC(C)(C)C(=O)[O-])c3csc(N)n3)C(=O)N2C(C(=O)O)=C1C[N+]12CCC(CNC(=O)/C(=N\OCC(=O)O)c3ccc(O)c(O)c3Cl)(CC1)CC2
measure_name: MIC
measured: 0.5
--
chemical_string: C[C@@H]1S[C@@H]2[C@H](NC(=O)/C(=N\OC(C)(C)C(=O)[O-])c3csc(N)n3)C(=O)N2C(C(=O)[O-])=C1C[N+]12CCC(CN3C(=O)c4cc(O)c(O)cc4C3=O)(CC1)CC2.[Na+]
measure_name: MIC
measured: 0.25
--
chemical_string: C[C@@H]1S[C@@H]2[C@H](NC(=O)/C(=N\OC(C)(C)C(=O)[O-])c3csc(N)n3)C(=O)N2C(C(=O)O)=C1C[N+]12CCC(CNC(=O)c3ccc(O)c(O)c3Cl)(CC1)C2
measure_name: MIC
measured: 0.5
--
chemical_string: C[C@@H]1S[C@@H]2[C@H](NC(=O)/C(=N\O[C@@H](CC(=O)[O-])C(=O)[O-])c3csc(N)n3)C(=O)N2C(C(=O)[O-])=C1C[N+]12CCC(CNC(=O)C(=O)c3cc(O)c(O)c(Cl)c3)(CC1)CC2.[Na+].[Na+]
measure_name: MIC
measured: 4
--
chemical_string: C[C@@H]1S[C@@H]2[C@H](NC(=O)/C(=N\OC(C)(C)C(=O)[O-])c3csc(N)n3)C(=O)N2C(C(=O)[O-])=C1C[N@+]1(C)[C@@H]2CC[C@H]1C[C@@H](NC(=O)C(=O)c1cc(O)c(O)c(Cl)c1)C2.[Na+]
measure_name: MIC
measured: 1
--
chemical_string: C[C@@H]1S[C@@H]2[C@H](NC(=O)/C(=N\OC(C)(C)C(=O)[O-])c3csc(N)n3)C(=O)N2C(C(=O)O)=C1C[N+]12CCC(CN3C(=O)c4ccc(O)c(O)c4C3=O)(CC1)CC2
measure_name: MIC
measured: 0.125
--
chemical_string: C[C@@H]1S[C@@H]2[C@H](NC(=O)/C(=N\OC(C)(C)C(=O)[O-])c3csc(N)n3)C(=O)N2C(C(=O)[O-])=C1C[N+]12CCC(CNC(=O)C(=O)c3ccc(O)c(O)c3)(CC1)CC2.[Na+]
measure_name: MIC
measured: 2

[I] C[C@@H]1S[C@@H]2[C@H](NC(=O)/C(=N\OC(C)(C)C(=O)[O-])c3csc(N)n3)C(=O)N2C(C(=O)[O-])=C1C[N+]12CCC(CC1)N(C(=O)c1ccc(O)c(O)c1Cl)CC2.[Na+]
[II] C[C@@H]1S[C@@H]2[C@H](NC(=O)/C(=N\OC(C)(C)C(=O)[O-])c3csc(N)n3)C(=O)N2C(C(=O)[O-])=C1C[N+]1(CCn2[nH]c(=O)c3cc(O)c(O)cc3c2=O)CCCC1.[Na+]
Request: I'd appreciate it if you could identify which of I and II has the greater MIC. Identify your selection by its label.
Result: II
